# Tested on: rat intestinal α-glucosidase
# Protocol Details: Mammalian α-glucosidase inhibition assay (rat intestinal acetone powder, maltose substrate)
# Format: biochemical
Overview of reported Glucosidase (rat) % Inhibition at 200 μM across a group of compounds:
Quantity: Glucosidase (rat) % Inhibition at 200 μM (%)

[
  {
    "Compound": "O=c1cc(-c2ccc(O)cc2)oc2cc(O)cc(O)c12 [Compound 18, Apigenin, reference compound]",
    "Assay Result": "−12.2"
  },
  {
    "Compound": "COc1cc(-c2cc(=O)c3c(O)cc(O)cc3o2)cc(OC)c1O [Compound 4, Tricin, reference compound]",
    "Assay Result": 16.1
  },
  {
    "Compound": "COc1cc(C(OC)C(CO)Oc2c(OC)cc(-c3cc(=O)c4c(O)cc(O)cc4o3)cc2OC)ccc1O (centres unmarked) [Compound 5]",
    "Assay Result": 6.1
  },
  {
    "Compound": "O=c1cc(-c2ccc(O)c(O)c2)oc2cc(O)cc(O)c12 [Compound 19, Luteolin, reference compound]",
    "Assay Result": 4.8
  },
  {
    "Compound": "COc1cc(C(OC)C(CO)Oc2c(OC)cc(-c3cc(=O)c4c(O)cc(O)cc4o3)cc2OC)ccc1O (centres unmarked) [Compound 6]",
    "Assay Result": 6.1
  }
]
